- System under test: human TLR2 (Homo sapiens)
- Construct: host or cells: HEK-Blue hTLR2 (HEK-293)
- Sequence (O60603 21-784): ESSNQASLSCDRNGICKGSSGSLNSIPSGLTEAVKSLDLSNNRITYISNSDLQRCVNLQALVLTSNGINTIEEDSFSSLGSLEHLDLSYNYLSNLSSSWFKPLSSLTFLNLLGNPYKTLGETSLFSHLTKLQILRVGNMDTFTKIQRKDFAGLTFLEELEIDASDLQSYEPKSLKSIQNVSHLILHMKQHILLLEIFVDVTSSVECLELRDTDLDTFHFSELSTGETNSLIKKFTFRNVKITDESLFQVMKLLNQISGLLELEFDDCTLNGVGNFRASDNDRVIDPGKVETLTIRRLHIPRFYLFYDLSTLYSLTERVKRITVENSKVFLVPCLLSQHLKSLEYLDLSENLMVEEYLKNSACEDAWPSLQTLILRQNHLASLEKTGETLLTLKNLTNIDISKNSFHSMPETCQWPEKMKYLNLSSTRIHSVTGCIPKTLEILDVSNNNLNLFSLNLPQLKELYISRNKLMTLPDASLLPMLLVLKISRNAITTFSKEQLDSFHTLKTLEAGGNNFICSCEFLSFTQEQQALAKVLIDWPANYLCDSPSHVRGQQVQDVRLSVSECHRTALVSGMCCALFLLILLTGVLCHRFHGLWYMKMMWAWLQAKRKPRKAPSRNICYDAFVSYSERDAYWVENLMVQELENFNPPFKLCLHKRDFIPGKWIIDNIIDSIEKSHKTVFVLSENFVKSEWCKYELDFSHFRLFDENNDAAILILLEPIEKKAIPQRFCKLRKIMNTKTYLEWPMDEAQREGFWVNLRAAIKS
- Method: HEK-Blue hTLR2 antagonism assay (SEAP reporter) with agonist Pam2CSK4 (TLR2/6 agonist)
- Format: cell-based
- Cond: Table A; HEK-Blue hTLR2 cells, ~3×EC50 Pam2CSK4, 18 h, SEAP OD 655 nm, 8-point dilutions
# strict inequality: IC50 < 2 µM yields condition met, everything else yields condition not met

Look over these answered cases.
{"Entry smiles": "COc1cc(-c2cnn(CCN3CCOCC3)c2)cc(C=O)c1O", "Classification": "condition not met"}
{"Entry smiles": "Oc1c(F)cc(-c2cnn(-c3ccccc3)c2)cc1F", "Classification": "condition not met"}
{"Entry smiles": "O=Cc1cc(-c2cnc(-c3ccc(N4CCCCC4)nc3)s2)cc(F)c1O", "Classification": "condition met"}
{"Entry smiles": "O=Cc1cc(-c2cnn(-c3ccccc3)c2)cc(F)c1O", "Classification": "condition not met"}
{"Entry smiles": "O=Cc1cc(-c2csc(-c3cccc(N4CCCC4)c3)n2)cc(F)c1O", "Classification": "condition met"}

### Prompt Would you kindly verify if IC50 of O=Cc1cc(-c2nc(-c3ccccc3)n[nH]2)cc(F)c1O is strictly less than 2 µM?
### Response condition not met

### Prompt // next record O=Cc1cc(-c2cc(-c3ccc(N4CCCC4)cc3)cs2)cc(F)c1O
### Response condition met

### Prompt And O=Cc1cc(-c2nc(-c3ccc(N4CCCC4)cc3)ns2)cc(F)c1O ?
### Response condition met

### Prompt Similarly, CC1(C)CCN(c2ccc(-c3nsc(-c4cc(F)c(O)c(C=O)c4)n3)cc2)C1 ?
### Response condition met

### Prompt Query O=Cc1cc(-c2cnc(-c3ccc(N4CC5(CCC5)C4)cc3)s2)cc(F)c1O next
### Response condition met

### Prompt Same read-out for O=Cc1cc(-c2ccc(-c3ccc(N4CCCC4)cc3)s2)cc(F)c1O ?
### Response condition not met

### Prompt Now this one: O=Cc1cc(-c2cnc(-c3cccc(N4CCCC4)c3)s2)cc(F)c1O
### Response condition not met

### Prompt Try this molecule too: O=Cc1cc(-c2ccn(-c3ccc(N4CCCC4)cc3)n2)cc(F)c1O
### Response condition met

### Prompt One more molecule: Cc1cc(-c2cnn(-c3ccccc3)c2)cc(Cl)c1O
### Response condition not met

### Prompt Here is the next molecule: Cc1nc(-c2cccc(N3CCCC3)c2)sc1-c1cc(F)c(O)c(C=O)c1
### Response condition not met

### Prompt Input Cc1nc(-c2ccc(N3CCCC3)cc2)sc1-c1cc(F)c(O)c(C=O)c1
### Response condition met
